The following are reported pIC50 results, target or system human KISS1R (Homo sapiens).
Where a SMILES comes first, the peptide text is derived from it.
Value format note: pIC50 is -log10 of concentration (mol/L); just state the number.

CC(C)C[C@H](NC(=O)CNC(=O)[C@H](Cc1ccccc1)NC(=O)[C@H](CO)NC(=O)[C@H](CC(=O)O)NC(=O)[C@H](Cc1c[nH]c2ccccc12)NC(=O)[C@H](CC(N)=O)NC(=O)[C@@H](N)Cc1ccc(O)cc1)C(=O)N[C@@H](CCCNC(=N)N)C(=O)N[C@@H](Cc1ccccc1)C(N)=O [ANA13] (H-YNWDSFGLRF-NH2) : 6.85
CC(C)C[C@H](NC(=O)CNC(=O)[C@H](Cc1ccccc1)NC(=O)[C@H](CO)NC(=O)[C@H](CC(N)=O)NC(=O)[C@H](Cc1c[nH]c2ccccc12)NC(=O)[C@H](CC(N)=O)NC(=O)[C@H](N)Cc1ccc(O)cc1)C(=O)N[C@@H](CCCNC(=N)N)C(=O)N[C@@H](Cc1ccccc1)C(N)=O : 8.44
CC(C)C[C@H](NC(=O)CNC(=O)[C@H](Cc1ccccc1)NC(=O)[C@H](CO)NC(=O)[C@H](CC(N)=O)NC(=O)[C@H](Cc1c[nH]c2ccccc12)NC(=O)[C@H](CC(N)=O)NC(=O)[C@@H](N)Cc1ccc(O)cc1)C(=O)N[C@@H](CCCNC(=N)N)C(=O)N[C@@H](Cc1ccccc1)C(N)=O [KP-10, kisspeptin-10, reference compound] : 9.00

Let us move to another entry and its pIC50.
[in] Form field: pIC50 recorded for CC(C)C[C@H](NC(=O)CNC(=O)[C@H](Cc1ccccc1)NC(=O)[C@H](C)NC(=O)[C@H](CC(N)=O)NC(=O)[C@H](Cc1c[nH]c2ccccc12)NC(=O)[C@H](CC(N)=O)NC(=O)[C@@H](N)Cc1ccc(O)cc1)C(=O)N[C@@H](CCCNC(=N)N)C(=O)N[C@@H](Cc1ccccc1)C(N)=O [ANA5] (H-YNWNAFGLRF-NH2) with human KISS1R (Homo sapiens) (enter value)
[out] 9.10

====

Parameter pIC50, tested on human KISS1R (Homo sapiens, UniProt Q969F8), listed per item.
Sequence (Q969F8 whole entry): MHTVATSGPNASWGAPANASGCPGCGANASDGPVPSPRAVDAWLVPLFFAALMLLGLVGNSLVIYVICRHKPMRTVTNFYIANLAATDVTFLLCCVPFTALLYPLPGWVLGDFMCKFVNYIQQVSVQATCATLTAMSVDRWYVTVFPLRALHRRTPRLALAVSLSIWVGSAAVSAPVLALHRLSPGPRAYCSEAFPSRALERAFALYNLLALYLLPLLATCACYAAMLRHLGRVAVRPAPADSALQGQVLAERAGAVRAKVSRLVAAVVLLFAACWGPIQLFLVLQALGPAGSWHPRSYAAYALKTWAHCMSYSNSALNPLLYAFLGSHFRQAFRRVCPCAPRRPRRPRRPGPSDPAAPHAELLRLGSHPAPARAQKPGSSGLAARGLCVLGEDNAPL
Where a SMILES comes first, the peptide text is derived from it.
Please keep in mind that pIC50 is minus log10 of the molar concentration; only the number is needed.

The cases that follow already have their pIC50 on record.
CC(C)C[C@H](NC(=O)CNC(=O)[C@@H](Cc1ccccc1)NC(=O)[C@H](CO)NC(=O)[C@H](CC(N)=O)NC(=O)[C@H](Cc1c[nH]c2ccccc12)NC(=O)[C@H](CC(N)=O)NC(=O)[C@@H](N)Cc1ccc(O)cc1)C(=O)N[C@@H](CCCNC(=N)N)C(=O)N[C@@H](Cc1ccccc1)C(N)=O : 6.60
CC(C)C[C@H](NC(=O)[C@H](C)NC(=O)[C@H](Cc1ccccc1)NC(=O)[C@H](CO)NC(=O)[C@H](CC(N)=O)NC(=O)[C@H](Cc1c[nH]c2ccccc12)NC(=O)[C@H](CC(N)=O)NC(=O)[C@@H](N)Cc1ccc(O)cc1)C(=O)N[C@@H](CCCNC(=N)N)C(=O)N[C@@H](Cc1ccccc1)C(N)=O [ANA7] (H-YNWNSFALRF-NH2) : 8.34

Would you kindly look at the next entry?
[in] Quick one: pIC50 for CC(C)C[C@H](NC(=O)CNC(=O)[C@H](Cc1ccccc1)NC(=O)[C@H](CO)NC(=O)[C@H](CC(N)=O)NC(=O)[C@H](Cc1c[nH]c2ccccc12)NC(=O)[C@H](CC(N)=O)NC(=O)[C@@H](N)Cc1ccc(O)cc1)C(=O)N[C@@H](CCCCN)C(=O)N[C@@H](Cc1ccccc1)C(N)=O [ANA17] (H-YNWNSFGLKF-NH2) ?
[out] 8.01
